Give residual activity for every item shown.
Biological target: UniProtKB Q02779
Sequence (Q02779 whole entry, looked up): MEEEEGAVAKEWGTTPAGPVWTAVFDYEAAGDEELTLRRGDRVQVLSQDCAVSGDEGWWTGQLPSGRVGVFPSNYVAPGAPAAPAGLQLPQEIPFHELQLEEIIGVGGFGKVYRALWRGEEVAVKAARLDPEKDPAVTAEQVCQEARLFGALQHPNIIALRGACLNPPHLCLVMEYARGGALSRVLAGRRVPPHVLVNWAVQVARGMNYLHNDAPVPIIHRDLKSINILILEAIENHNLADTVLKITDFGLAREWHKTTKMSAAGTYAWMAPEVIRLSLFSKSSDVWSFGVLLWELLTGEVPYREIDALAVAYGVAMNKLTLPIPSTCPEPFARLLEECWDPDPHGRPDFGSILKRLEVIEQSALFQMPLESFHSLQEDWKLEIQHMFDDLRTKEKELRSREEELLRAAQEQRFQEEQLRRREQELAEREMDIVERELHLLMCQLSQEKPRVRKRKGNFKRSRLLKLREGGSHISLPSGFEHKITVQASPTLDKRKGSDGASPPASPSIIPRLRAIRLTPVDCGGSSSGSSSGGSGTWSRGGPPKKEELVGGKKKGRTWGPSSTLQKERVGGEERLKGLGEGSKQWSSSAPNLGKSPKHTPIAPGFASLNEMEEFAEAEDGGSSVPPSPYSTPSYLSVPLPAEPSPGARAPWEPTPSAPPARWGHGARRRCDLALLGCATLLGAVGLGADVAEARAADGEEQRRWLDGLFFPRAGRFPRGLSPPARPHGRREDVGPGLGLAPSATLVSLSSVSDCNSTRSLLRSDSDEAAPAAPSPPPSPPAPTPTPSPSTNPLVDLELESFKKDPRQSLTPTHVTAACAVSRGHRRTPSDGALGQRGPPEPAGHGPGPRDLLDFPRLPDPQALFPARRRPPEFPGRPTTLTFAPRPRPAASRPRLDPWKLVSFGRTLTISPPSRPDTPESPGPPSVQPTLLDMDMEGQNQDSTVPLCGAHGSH
Test: radiometric filter-binding kinase assay, Kinase HotSpot
Settings: compound 0.5 µM; ATP 10 µM
One number for each entry, in %.

// worked examples, residual activity included
{"compound": "O=S(=O)(c1cccc2cnccc12)N1CCCNCC1", "unit_symbol": "%", "residual activity": 88.3}
{"compound": "N#C/C(=C(/N)Sc1ccc(N)cc1)c1ccccc1C(F)(F)F", "unit_symbol": "%", "residual activity": 88.1}
{"compound": "CC(C)N(CCC(=O)c1ccc2ccccc2c1)Cc1ccccc1", "unit_symbol": "%", "residual activity": 92.6}
{"compound": "Nc1cccc(-c2cc3c(Oc4cccc(O)c4)ncnc3[nH]2)c1", "unit_symbol": "%", "residual activity": 79.2}
{"compound": "CCN(CC)CCNC(=O)c1c(C)[nH]c(/C=C2\\C(=O)Nc3ccc(F)cc32)c1C", "unit_symbol": "%", "residual activity": 104}
{"compound": "CCC(=O)Nc1ccc2ncnc(Nc3cccc(Br)c3)c2c1", "unit_symbol": "%", "residual activity": 91.2}
{"compound": "CO[C@H]1CC2CC[C@@H](C)[C@@](O)(O2)C(=O)C(=O)N2CCCC[C@H]2C(=O)OC([C@H](C)C[C@@H]2CC[C@@H](O)[C@H](OC)C2)CC(=O)[C@H](C)/C=C(\\C)[C@@H](O)[C@@H](OC)C(=O)[C@H](C)C[C@H](C)/C=C/C=C/C=C/1C (some centres undefined)", "unit_symbol": "%", "residual activity": 109}
{"compound": "O=C1NC(=O)C(c2cn(CCCn3ccnc3)c3ccccc23)=C1Nc1ccccc1", "unit_symbol": "%", "residual activity": 34.5}
{"compound": "COc1cc2ncnc(Nc3cccc(Cl)c3)c2cc1OC", "unit_symbol": "%", "residual activity": 101}
{"compound": "Cc1[nH]c(/C=C2\\C(=O)Nc3ccc(S(=O)(=O)N(C)c4cccc(Cl)c4)cc32)c(C)c1C(=O)N1CCN(C)CC1", "unit_symbol": "%", "residual activity": 74}

Hello, I would appreciate it if you could give residual activity for each entry below.
1. Cc1ccc(NC2=CC(=O)c3sc(C)nc3C2=O)cc1
2. CCN(CC)C(=O)c1ccc(Nc2nc(OCC3CCCCC3)c3nc[nH]c3n2)cc1
3. Cc1ccc(S(=O)(=O)/C=C/C#N)cc1
4. COc1ccc(COc2ccc(Cc3cnc(N)nc3N)cc2OC)cc1

[out]
1: 94.6; 2: 15.2; 3: 105; 4: 96.4

----------
Target: PRKCE (human)
Assay: radiometric filter-binding kinase assay, Kinase HotSpot
Settings: compound 0.5 µM; ATP 10 µM
measurement_label: residual activity (%)
Answers are plain numbers, in %.

// worked examples, residual activity included
{"compound_structure": "CCOC(=O)c1c(C)[nH]c(/C=C2\\C(=O)Nc3ccccc32)c1C", "measurement_label": "residual activity", "value": 98.2}
{"compound_structure": "O=C1Nc2ccc(Cl)cc2/C1=C/c1cc(Cl)c(O)c(Cl)c1", "measurement_label": "residual activity", "value": 100}

Hello, I would appreciate it if you could give residual activity for each entry below.
1. O=C(Nc1cccc(Nc2nccc(Nc3cccc(C(F)(F)F)c3)n2)c1)C1CC1
2. CNc1cc2c(Nc3cccc(Br)c3)ncnc2cn1
3. CCN(CC)CCNC(=O)c1c(C)[nH]c(/C=C2\C(=O)Nc3ccc(F)cc32)c1C
4. COc1ccc(COc2ccc(Cc3cnc(N)nc3N)cc2OC)cc1
5. CNC(=O)c1cc(Oc2ccc(NC(=O)Nc3ccc(Cl)c(C(F)(F)F)c3)cc2)ccn1
6. CCN(CC)C(=O)c1ccc(Nc2nc(OCC3CCCCC3)c3nc[nH]c3n2)cc1
7. O=C1NC(=O)/C(=C/c2ccc3c(c2)OC(F)(F)O3)S1

[out]
1. 106
2. 99.8
3. 98
4. 95.7
5. 96.4
6. 76.6
7. 103

----------
Target: PRKCE (human) (UniProt Q02156)
Sequence (Q02156 whole entry, looked up): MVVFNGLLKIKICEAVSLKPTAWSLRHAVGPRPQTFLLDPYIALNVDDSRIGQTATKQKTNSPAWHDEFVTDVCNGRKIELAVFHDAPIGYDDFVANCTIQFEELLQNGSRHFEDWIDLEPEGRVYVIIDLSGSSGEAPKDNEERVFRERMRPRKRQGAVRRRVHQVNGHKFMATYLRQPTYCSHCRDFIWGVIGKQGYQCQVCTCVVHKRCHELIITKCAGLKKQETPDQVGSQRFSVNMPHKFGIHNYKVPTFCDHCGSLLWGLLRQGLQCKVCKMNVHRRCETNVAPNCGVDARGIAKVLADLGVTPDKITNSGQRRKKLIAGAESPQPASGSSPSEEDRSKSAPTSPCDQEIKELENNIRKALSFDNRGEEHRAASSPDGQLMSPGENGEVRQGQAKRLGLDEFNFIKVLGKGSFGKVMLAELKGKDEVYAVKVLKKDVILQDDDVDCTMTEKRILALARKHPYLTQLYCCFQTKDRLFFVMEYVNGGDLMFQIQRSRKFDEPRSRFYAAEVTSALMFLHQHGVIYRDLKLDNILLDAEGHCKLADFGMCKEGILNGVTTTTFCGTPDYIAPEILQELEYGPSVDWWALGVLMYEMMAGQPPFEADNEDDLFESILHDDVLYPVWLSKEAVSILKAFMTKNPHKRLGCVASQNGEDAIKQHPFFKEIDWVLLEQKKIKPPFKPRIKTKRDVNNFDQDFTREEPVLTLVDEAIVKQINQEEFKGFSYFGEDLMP
Assay: radiometric filter-binding kinase assay, Kinase HotSpot
Settings: compound 0.5 µM; ATP 10 µM
measurement_label: residual activity
Answer with the figure and its unit, nothing else.

{"compound_structure": "O=S(=O)(c1cccc2cnccc12)N1CCCNCC1", "residual activity": "76.5%"}

Hello, I would appreciate it if you could give residual activity for each entry below.
1. CCN(CC)CCNC(=O)c1c(C)[nH]c(/C=C2\C(=O)Nc3ccc(Cl)cc32)c1C
2. Cc1ccc(Nc2nccc(N(C)c3ccc4c(C)n(C)nc4c3)n2)cc1S(N)(=O)=O
3. COc1ccc2c(c[n+](C)c3c4cc5c(cc4ccc23)OCO5)c1OC

[out]
1: 102%; 2: 100%; 3: 93.6%
